B1: H2-Kb / Ed16-1 (parent complex)
chain 1: GEQVEQRPPHLSVREGDSAVITCTYTDPNSYYFFWYKQEPGASLQLLMKVFSSTEINEGQGFTVLLNKKDKRLSLNLTAAHPGDSAAYFCAVSGSNNRIFFGDGTQLVVKP
chain 2: EAAVTQSPRSKVAVTGGKVTLSCHQTNNHDYMYWYRQDTGHGLRLIHYSYVADSTEKGDIPDGYKASRPSQENFSLILELASLSQTAVYFCASRTGTDYTFGSGTRLLVI
chain 3: not shown
chain 4: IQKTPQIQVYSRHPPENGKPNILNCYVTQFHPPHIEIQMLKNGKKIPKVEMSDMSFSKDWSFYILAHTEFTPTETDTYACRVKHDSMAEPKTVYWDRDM
chain 5: SIINFEKL

- Variants of: B1
- Run description: % of reporter cells activated (NFAT-GFP), raw; also: test concentration or dose not given here
Class key for ratio to parent values: low bin (below 0.6), mid bin (0.6 to below 0.9), high bin (0.9 or more)

> print(dat)
    mutation.annotation  classification
 1          chain 5 I2F         mid bin
 2          chain 5 F5W         mid bin
 3          chain 5 E6M         low bin
 4          chain 5 N4M         low bin
 5          chain 5 I2A        high bin
 6          chain 5 I2P         mid bin
 7          chain 5 N4A         low bin
 8          chain 5 F5K         mid bin
 9          chain 5 I3C         mid bin
10          chain 5 I2S        high bin
11          chain 5 L8A        high bin
12          chain 5 E6W         low bin
13          chain 5 F5D         mid bin
14          chain 5 F5H        high bin
15          chain 5 N4P         low bin
16          chain 5 S1R         low bin
17          chain 5 F5M        high bin
18          chain 5 L8G        high bin
19          chain 5 S1A         low bin

The reported measurements were obtained from paper PMC11480844.
